test: P. aeruginosa growth delay under iron chelation, dose response, absorbance 405 nm, dry powder, set 6 (AID 624109); conditions: P. aeruginosa growth with EDDHA, active compounds read low; at 0.056 µM unless noted
Records with an inconclusive call do not appear. Active and inactive are the calls of the source.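 The calls were made as follows: active = curve reaches the -35% threshold at a concentration no more than twice the top valid dose, in duplicate at both wavelengths; inconclusive = no clear call, values can overlap the other calls; inactive = the rest, including effects opposite to the expected decrease.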
assayMetric: max activity

* CCCCC(C#N)c1ccccn1 (stereo not drawn) | 1.07% [at 120 µM] (inactive)
* CCCCC(C#N)c1ccc(F)cn1 (stereo not drawn) | -30.6% [at 0.5 µM] (inactive)
* CCCCC(C#N)c1ccc(Cl)cc1 (stereo not drawn) | -39.1% [at 0.16 µM] (inactive)
* CCCCC(C#N)c1ccc(Cl)cn1 (stereo not drawn) | -57.2% (inactive)
* Clc1ccc(C(c2cccc(Cl)n2)c2nn[nH]n2)cc1 (stereo not drawn) | 10.4% [at 13.5 µM] (inactive)
* N#Cc1cccc(C(C#N)c2ccc(F)cc2)n1 (stereo not drawn) | 19% [at 0.0195 µM] (inactive)
* COCCC(C#N)c1ccc(F)cc1 (stereo not drawn) | -46.3% [at 0.5 µM] (inactive)
* CCCCC(C#N)c1ccc(F)cc1 (stereo not drawn) | -50.3% [at 1.5 µM] (inactive)
